experimentNotes: Tolerance of peroral dose in mice
conditionInfo: mouse, in vivo, po
recordedMetric: Tolerated peroral dose

Enquiry: Entry COc1ccccc1N1CCN(CC(O)CO[C@H]2CO[C@H]3[C@@H]2OC[C@H]3O[N+](=O)[O-])CC1 (stereo partly drawn) [Example 17] has what Tolerated peroral dose?
Return: 500 mg/kg

Enquiry: // repeat for COc1ccccc1N1CCN(CC(O)CO[C@H]2CO[C@H]3[C@@H]2OC[C@@H]3O[N+](=O)[O-])CC1 (stereo partly drawn) [Example 20] and report
Return: 500 mg/kg

Enquiry: // repeat for COc1ccccc1N1CCN(CC(O)CO[C@@H]2CO[C@H]3[C@@H]2OC[C@H]3O[N+](=O)[O-])CC1 (stereo partly drawn) [Example 19] and report
Return: 500 mg/kg
